B1: RHOBTB3 (parent)
chain: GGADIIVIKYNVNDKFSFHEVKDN

# Variants of: B1
# assay-overview: protein stability index of a GFP-peptide fusion (GPS, HEK-293T) (PSI 1-6); higher = more stable;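 note: lentivirally expressed fusions sorted by FACS into six bins by GFP to DsRed ratio, PSI derived from sequencing read proportions per bin multiplied by bin number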
# experimental-conditions: c terminus: a fixed tail appended
observation-type: protein stability index
Give bare numbers.

| item-sequence | result |
| --- | --- |
| GGADIIVIKYNVNYKFSFHEVKDN [D14Y] | 3.38 |
| GGADIIVPKYNVNDKFSFHEVKDN [I8P] | 1.32 |
| GQADIIVIKYNVNDKFSFHEVKDN [G2Q] | 1.86 |

Turning now to a further variant:
Identify the reported protein stability index for the following entry. GGADIIVIKYNVFDKFSFHEVKDN [N13F]
3.47
